Test target: Sterol O-acyltransferase 1 (Rattus norvegicus) (UniProt O70536)
Sequence (O70536 whole entry): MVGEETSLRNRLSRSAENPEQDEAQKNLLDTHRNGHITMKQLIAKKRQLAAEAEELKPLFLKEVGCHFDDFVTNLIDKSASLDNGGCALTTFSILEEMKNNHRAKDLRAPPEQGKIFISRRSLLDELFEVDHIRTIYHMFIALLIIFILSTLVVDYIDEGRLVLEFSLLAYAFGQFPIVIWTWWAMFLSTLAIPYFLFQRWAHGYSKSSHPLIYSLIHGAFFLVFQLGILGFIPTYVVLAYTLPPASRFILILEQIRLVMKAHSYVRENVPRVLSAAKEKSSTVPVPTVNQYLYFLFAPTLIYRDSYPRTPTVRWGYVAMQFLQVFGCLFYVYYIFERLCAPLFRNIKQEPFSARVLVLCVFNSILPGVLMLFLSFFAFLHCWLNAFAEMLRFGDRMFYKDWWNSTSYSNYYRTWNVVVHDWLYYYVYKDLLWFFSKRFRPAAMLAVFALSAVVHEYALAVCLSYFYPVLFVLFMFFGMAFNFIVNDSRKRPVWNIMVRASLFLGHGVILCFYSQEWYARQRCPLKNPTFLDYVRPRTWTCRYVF
Experimental protocol: In vitro acyl coenzyme A:cholesterol acyltransferase (ACAT) activity in rat liver microsome at a concentration of 10 micro g/mL
Type: microsomes
For each of the compounds below, state its inhibition.
Answers are plain numbers, in %.

State the recorded inhibition for every item in the following list.
1. Cn1c(SC[C@H]2C[C@@](C)(O)CC(=O)O2)nc(-c2ccccc2)c1-c1ccccc1.Cn1c(SC[C@H]2C[C@](C)(O)CC(=O)O2)nc(-c2ccccc2)c1-c1ccccc1
2. CC1=CC(=O)OC(CSc2nc(-c3ccccc3)c(-c3ccccc3)[nH]2)C1 (stereo not given)
3. Sc1nc(-c2ccccc2Cl)c(-c2ccccc2Cl)[nH]1
4. C[C@@]1(O)CC(=O)OC(CSc2nc(-c3ccc(Cl)cc3)c(-c3ccc(Cl)cc3)[nH]2)C1 (stereo not given in full)
5. CCSc1nc(-c2ccccc2)c(-c2ccccc2)[nH]1

1: 90; 2: 98; 3: 27; 4: 98; 5: 99
